B1: mRNA-splicing (parent)
chain: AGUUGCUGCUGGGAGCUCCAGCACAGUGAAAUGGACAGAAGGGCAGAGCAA

Variants of: B1
Test: exon inclusion enrichment index; higher = more inclusion; WT1 exon 5 minigene, HEK293
reportedProperty: exon inclusion enrichment index
Provide a numeric answer; units are not to be included.

[
  {
    "var": "G5A U7C G8A U10C U27A G28C",
    "exon inclusion enrichment index": 2.42
  }
]

Prompt: Please look up its exon inclusion enrichment index: G5C C6G U7C U10C C22A A23G
Completion: 3.83

Prompt: Now consider G5A C6U U7A G8U C9A .
Completion: 0.074

Prompt: Now consider G5C C6A U7C G8A U10A A31G .
Completion: 0.141
